Dear all, this message contains pIC50 results, target or system HPK1 (Homo sapiens, UniProt Q92918).
pIC50: −log10 of the molar value.

These recorded examples may help you get a feel for the data.
[[record]]
compound_string = "O=C1NCc2c(-c3ccncc3)ccc(Nc3ccc(N4CCOCC4)cn3)c21"
value_reported = "> 6.00"

[[record]]
compound_string = "CN1CCN(c2ccc(Nc3ccc(-c4ccnc(-c5c(F)cccc5F)c4)c4c3C(=O)NC4)nc2)CC1"
value_reported = "5.30 to 6.00"

[[record]]
compound_string = "CN1CCN(c2ccc(Nc3ccc(-c4cn[nH]c4)c4c3C(=O)NC4)nc2)CC1"
value_reported = "> 6.00"

[[record]]
compound_string = "CN1CCN(c2ccc(Nc3ccc(-c4ccnc(N5CCC6(CCOCC6)CC5)c4)c4c3C(=O)NC4)nc2)CC1"
value_reported = "5.30 to 6.00"

[[record]]
compound_string = "CN1CCN(c2ccc(Nc3ccc(-c4ccnc(C#Cc5ccn(C)n5)c4)c4c3C(=O)NC4)nc2)CC1"
value_reported = "> 6.00"

[[record]]
compound_string = "Cc1cccc(C#Cc2cc(-c3ccc(Nc4ccc(N5CCN(C)CC5)cn4)c4c3CNC4=O)ccn2)c1"
value_reported = "> 6.00"

[[record]]
compound_string = "O=C1NCc2c(-c3ccncc3)ncc(Nc3ccc(N4CCC(O)CC4)cn3)c21"
value_reported = "5.30 to 6.00"


Now, please, on to the next compound.
Entry under test: `CN1CCN(c2ccc(Nc3ccc(-c4ccc(F)c(C5CCOCC5)c4)c4c3C(=O)NC4)nc2)CC1` . Its pIC50 was 5.30 to 6.00

----------
Biological target: HPK1 (Homo sapiens, UniProt Q92918)
Construct: purchased Invitrogen
Sequence (Q92918 whole entry): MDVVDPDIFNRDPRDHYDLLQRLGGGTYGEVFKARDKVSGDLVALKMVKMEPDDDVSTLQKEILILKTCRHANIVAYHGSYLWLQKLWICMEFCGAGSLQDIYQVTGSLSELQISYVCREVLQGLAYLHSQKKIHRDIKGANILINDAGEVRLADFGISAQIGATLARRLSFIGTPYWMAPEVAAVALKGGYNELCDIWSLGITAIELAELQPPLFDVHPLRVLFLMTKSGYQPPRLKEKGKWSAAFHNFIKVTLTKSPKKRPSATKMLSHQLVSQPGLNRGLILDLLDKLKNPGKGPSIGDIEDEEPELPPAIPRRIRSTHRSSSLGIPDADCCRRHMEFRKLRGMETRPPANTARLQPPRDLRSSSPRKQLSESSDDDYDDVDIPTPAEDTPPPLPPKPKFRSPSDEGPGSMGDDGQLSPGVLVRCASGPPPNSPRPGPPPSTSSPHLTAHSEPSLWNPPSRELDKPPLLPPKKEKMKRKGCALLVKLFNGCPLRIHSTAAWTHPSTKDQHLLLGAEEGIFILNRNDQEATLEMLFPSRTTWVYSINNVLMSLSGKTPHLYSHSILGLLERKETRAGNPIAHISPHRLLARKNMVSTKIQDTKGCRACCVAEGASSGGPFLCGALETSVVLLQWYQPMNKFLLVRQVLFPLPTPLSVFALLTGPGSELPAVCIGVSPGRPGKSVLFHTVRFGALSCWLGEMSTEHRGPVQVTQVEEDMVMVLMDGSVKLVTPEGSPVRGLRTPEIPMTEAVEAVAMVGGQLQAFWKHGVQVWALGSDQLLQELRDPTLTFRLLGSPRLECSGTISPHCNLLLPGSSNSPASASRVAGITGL
Assay: HPK1 biochemical enzyme assay (microfluidic mobility shift, Caliper)
Conditions: 1.5 nM HPK1 (Invitrogen), 1 mM ATP, 30 min preincubation, 60 min at RT, top concentration 3 μM; read-out: HPK1 1000UMATP caliper IC50
Protocol: Example 20. HPK1 Biochemical Enzyme Assay HPK1 biochemical enzyme assay: HPK1 enzyme inhibition was measured using a microfluidic mobility shift assay. Reactions were performed in a 384-well plate, containing 1.5 nM HPK1 (Invitrogen), in assay buffer (Cama Biosciences; pH 7.4). […] Following 60 min incubation at RT, the reaction was terminated by addition of 60 μl/well termination buffer (Carna Biosciences) and signal determination using a Caliper EZ Reader (Perkin Elmer, UK).
// reported IC50 for each item listed

[[record]]
molecule = "CN1CCN(c2ccc(Nc3ccc(-c4ccnc(N5CCOCC5)c4)c4c3C(=O)NC4)nc2)CC1 [Compound I-32]"
value_reported = "< 1 µM"

[[record]]
molecule = "Cc1ncc(-c2ccc(Nc3ccc(N4CCNCC4)cn3)c3c2CNC3=O)n1C [Compound I-72]"
value_reported = "< 1 µM"

[[record]]
molecule = "CN1CCN(c2ccc(Nc3ccc(-c4ccnc(C5CCOC5)c4)c4c3C(=O)NC4)nc2)CC1 (centres unmarked) [Compound I-76]"
value_reported = "1 to 5 µM"


Known value: HPK1 (Homo sapiens, UniProt Q92918) IC50 of the molecule Cc1cc(-c2ncc(Nc3ccc(N4CCNCC4)cn3)c3c2CNC3=O)ccn1 [Compound I-9] equals 1 to 5 µM

Known value: HPK1 (Homo sapiens, UniProt Q92918) IC50 of the molecule CN1CCN(c2ccc(Nc3ccc(-c4ccncc4C4CCOCC4)c4c3C(=O)NC4)nc2)CC1 [Compound I-70] equals 1 to 5 µM

Known value: HPK1 (Homo sapiens, UniProt Q92918) IC50 of the molecule O=C1NCc2c(-c3c(F)cccc3F)ncc(Nc3ccc(N4CCNCC4)cn3)c21 [Compound I-3] equals 1 to 5 µM

Known value: HPK1 (Homo sapiens, UniProt Q92918) IC50 of the molecule O=C1NCc2c(-c3ccncc3)ccc(Nc3ccc(N4CCNCC4)cn3)c21 [Compound I-27] equals < 1 µM

Known value: HPK1 (Homo sapiens, UniProt Q92918) IC50 of the molecule O=C1NCc2c(-c3ccncc3)ncc(Nc3ccc(N4CCNCC4)cn3)c21 [Compound I-1] equals < 1 µM

Known value: HPK1 (Homo sapiens, UniProt Q92918) IC50 of the molecule CN1CCN(c2ccc(Nc3ccc(-c4ccnc(C5CCOCC5)n4)c4c3C(=O)NC4)nc2)CC1 [Compound I-62] equals 1 to 5 µM

Known value: HPK1 (Homo sapiens, UniProt Q92918) IC50 of the molecule COc1cccc(-c2ncc(Nc3ccc(N4CCN(C)CC4)cn3)c3c2CNC3=O)c1OC [Compound I-19] equals 1 to 5 µM

Data credit: patent US11926625B2
